What activity change, negative = inhibition was measured for each of the following?
Target: Guanidinoacetate N-methyltransferase (Homo sapiens)
Test: Confirmatory Screen for Target Class Profiling of Small Molecule Inhibitors of Methyltransferases (AID 1745852); note: % is set by controls: 0 for no effect and ±100 for the full control effect
Settings: MTase-Glo luminescence, SAH detection, recombinant enzyme; at 57.3 µM (top of the series) unless noted

Examples with their reported activity change, negative = inhibition follow.
Exam item: So what's the measured activity change, negative = inhibition for this one? COc1ccccc1-c1[nH]nc2ncc(C(=O)NCC3CC3)nc12
Marked response: -13.8% [at 85.7 µM]

Exam item: Further, for Cn1cc(-c2cc3c(ccn3Cc3ccncc3)c(N3CCOCC3)n2)cn1 ?
Marked response: -2.92% [at 85.7 µM]

Exam item: Further, for Cn1ccc2c(C(=O)NCCc3cnc[nH]3)nc(-c3ccc(N4CCOCC4)cc3)cc21 ?
Marked response: -0.183% [at 85.7 µM]

Exam item: Further, for CCN(CC)c1cc(CCC(=O)N2CCN(c3cccc(OC)c3)CC2)ccn1 ?
Marked response: 5.52%

Exam item: Further, for O=C1c2ccccc2C(=O)c2c1cccc2S(=O)(=O)Nc1ccc(Cl)cc1 ?
Marked response: -0.67%

For every listed record, write down its activity change, negative = inhibition.
1. COc1ccc(C2CC(=O)c3cc(-c4nc(-c5cccc([N+](=O)[O-])c5)cs4)c(=O)n(-c4ccccc4N)c3C2)cc1 (stereo not given)
2. c1ccc(-c2cc3c(cn2)NCCN(Cc2ccccn2)C3)cc1
3. C1=C(c2nc(-c3ccncc3)cc3c2ccn3Cc2cccnc2)CCOC1
4. COc1ccc(CN2C(=O)c3cc4ccccc4n3CC2(C)C(=O)NCc2ccccc2)cc1OC (stereo not given)

Marked response:
["-4.17%", "3.72% [at 85.7 µM]", "-9.57% [at 85.7 µM]", "0%"]

For every listed record, write down its activity change, negative = inhibition.
1. Cc1cc(F)ccc1NS(=O)(=O)c1ccc2[nH]c3c(c2c1)CCCC3
2. Cc1ccc(C(=O)O)c2c1N[C@@H](c1ccc(Cl)cc1)[C@H]1CC=C[C@@H]21
3. Cc1noc(C)c1[S+](=O)([O-])N1CCn2c(nn(-c3ccc(C(F)(F)F)cc3)c2=O)C1
4. COCCn1ccc2c(C3=CCOCC3)nc(-c3cccc4[nH]ccc34)cc21
5. Cc1ccc(Cn2c(=O)c3ccccc3n3c(CCC(=O)N4CCC(N5CCCCC5)CC4)nnc23)cc1

Marked response:
1: 0.252%; 2: 0.676%; 3: -1.81%; 4: -9.46% [at 85.7 µM]; 5: -4.42%

For every listed record, write down its activity change, negative = inhibition.
1. O=C(c1cc(-c2ccccc2)n[nH]1)N1CCc2c(nc(-c3ccccc3)[nH]c2=O)C1
2. CC1CCN(CCCNC(=O)C2CCc3sc(C(=O)N4CCCC4)cc3C2)CC1 (stereo not given)

Marked response:
1: 7.17%; 2: 6.27%

Origin of values: PubChem BioAssay (NCATS)
